Data provenance is patent US9296747B1.

test target: recombinant human GST-PKR (Homo sapiens (Human), UniProt P19525)
Sequence (P19525 whole entry): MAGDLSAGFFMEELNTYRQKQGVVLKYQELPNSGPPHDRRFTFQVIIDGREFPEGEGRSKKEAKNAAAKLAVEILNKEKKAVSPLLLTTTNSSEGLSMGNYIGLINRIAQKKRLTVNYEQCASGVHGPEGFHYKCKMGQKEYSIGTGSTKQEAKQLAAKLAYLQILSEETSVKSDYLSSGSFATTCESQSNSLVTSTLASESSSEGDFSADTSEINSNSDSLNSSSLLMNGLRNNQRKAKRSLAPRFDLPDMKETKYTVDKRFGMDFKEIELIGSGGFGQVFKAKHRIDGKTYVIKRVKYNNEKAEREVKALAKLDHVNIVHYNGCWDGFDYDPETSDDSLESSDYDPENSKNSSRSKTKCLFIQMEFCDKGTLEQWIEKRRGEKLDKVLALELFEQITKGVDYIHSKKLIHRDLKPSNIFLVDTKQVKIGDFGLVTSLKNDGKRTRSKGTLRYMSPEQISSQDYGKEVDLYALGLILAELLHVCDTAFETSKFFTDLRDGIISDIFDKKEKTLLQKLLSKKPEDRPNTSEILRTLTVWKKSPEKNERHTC
test summary: PKR KinaseGlo Assay
measurement setup: 6.6 uM ATP, 10 minutes at room temperature
endpoint: IC50 (nM)
Answers are plain numbers, in nM.

Here's what some known entries look like.
| input smiles | measurement units | IC50 |
| --- | --- | --- |
| O=C(Nc1cccnc1)N1CCc2nc(Nc3ccccc3)ncc2C1 | nM | 282 |
| COc1cc(Nc2ncc3c(n2)CCN(C(=O)c2ccccn2)C3)cc(OC)c1OC | nM | 2820 |
| COc1ccc(Nc2ncc3c(n2)CCN(C(=O)c2cccnc2)C3)cc1OC | nM | 176 |

Notebook: `COc1cc(Nc2ncc3c(n2)CCN(C(=O)c2cccnc2)C3)cc(OC)c1` , IC50 read as 130

---

test target: PDGFRβ (purified cytoplasmic domain PDGFR-b protein) (Homo sapiens (Human))
Sequence (P09619 554-1106): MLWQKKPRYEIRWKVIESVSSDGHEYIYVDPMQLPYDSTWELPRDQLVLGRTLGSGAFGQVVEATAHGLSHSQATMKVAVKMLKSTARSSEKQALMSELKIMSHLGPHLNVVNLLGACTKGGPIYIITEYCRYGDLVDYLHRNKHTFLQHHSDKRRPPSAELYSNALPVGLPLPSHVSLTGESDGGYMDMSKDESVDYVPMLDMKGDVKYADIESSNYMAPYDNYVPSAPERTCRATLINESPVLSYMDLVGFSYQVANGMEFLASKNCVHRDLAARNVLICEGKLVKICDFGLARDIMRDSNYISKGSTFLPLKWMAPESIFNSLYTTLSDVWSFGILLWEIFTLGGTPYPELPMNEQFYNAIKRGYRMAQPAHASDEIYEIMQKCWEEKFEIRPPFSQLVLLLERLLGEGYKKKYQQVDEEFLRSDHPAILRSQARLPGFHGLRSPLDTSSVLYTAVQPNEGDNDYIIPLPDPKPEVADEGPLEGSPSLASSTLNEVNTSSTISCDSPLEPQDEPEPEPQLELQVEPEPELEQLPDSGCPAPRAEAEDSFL
pIC50: −log10 of the molar value.
pIC50 of 7 or higher: Y. Under 7: N.

Solved entries (count: 3):
| input smiles | test target | assigned class |
| --- | --- | --- |
| COc1cc(Nc2ncc3c(n2)CCN(C(=O)c2cc(C)nn2C)C3)cc(OC)c1OC | PDGFRβ (purified cytoplasmic domain PDGFR-b protein) (Homo sapiens (Human)) | Y |
| COc1ccc(Nc2ncc3c(n2)CCN(C(=O)c2cccnc2)C3)cc1 | PDGFRβ (purified cytoplasmic domain PDGFR-b protein) (Homo sapiens (Human)) | Y |
| COc1cc(Nc2ncc3c(n2)CCN(C(=O)c2occc2C)C3)cc(OC)c1OC | PDGFRβ (purified cytoplasmic domain PDGFR-b protein) (Homo sapiens (Human)) | N |

Query: Hi team, for `COc1ccccc1Nc1ncc2c(n1)CCN(C(=O)c1cccnc1)C2` , is the recorded pIC50 at or above 7?
Response: N

---

Parameter 'readout' = pIC50; parameter 'system' = VEGFR2 (purified cytoplasmic domain KDR protein) (Homo sapiens (Human)).
Sequence (P35968 786-1356): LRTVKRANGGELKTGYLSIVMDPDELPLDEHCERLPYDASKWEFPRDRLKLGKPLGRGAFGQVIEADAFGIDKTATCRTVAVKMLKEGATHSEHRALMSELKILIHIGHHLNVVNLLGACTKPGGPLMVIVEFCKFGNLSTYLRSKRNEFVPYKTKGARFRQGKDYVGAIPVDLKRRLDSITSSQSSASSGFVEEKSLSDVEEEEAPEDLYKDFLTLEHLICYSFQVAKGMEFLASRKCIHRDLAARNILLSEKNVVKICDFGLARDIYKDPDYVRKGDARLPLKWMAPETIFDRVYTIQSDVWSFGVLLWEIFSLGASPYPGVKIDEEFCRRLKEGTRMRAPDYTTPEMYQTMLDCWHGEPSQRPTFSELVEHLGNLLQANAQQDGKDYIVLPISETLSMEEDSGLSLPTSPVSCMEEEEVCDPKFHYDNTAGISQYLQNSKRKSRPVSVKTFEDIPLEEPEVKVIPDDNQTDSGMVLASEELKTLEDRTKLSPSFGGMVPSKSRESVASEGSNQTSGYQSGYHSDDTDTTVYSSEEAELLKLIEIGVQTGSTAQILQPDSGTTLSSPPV
Give bare numbers, as −log10 of the molar value.

| compound | test target | experimental result |
| --- | --- | --- |
| COc1ccccc1Nc1ncc2c(n1)CCN(C(=O)c1cccnc1)C2 [Example 7] | VEGFR2 (purified cytoplasmic domain KDR protein) (Homo sapiens (Human)) | 8.00 |
| COc1cc(Nc2ncc3c(n2)CCN(C(=O)c2cccs2)C3)cc(OC)c1OC [Example 13] | VEGFR2 (purified cytoplasmic domain KDR protein) (Homo sapiens (Human)) | 8.10 |
| COc1cc(Nc2ncc3c(n2)CCN(C(=O)c2occc2C)C3)cc(OC)c1OC [Example 11] | VEGFR2 (purified cytoplasmic domain KDR protein) (Homo sapiens (Human)) | 8.22 |
| COc1ccc(Nc2ncc3c(n2)CCN(C(=O)c2cccnc2)C3)cc1 [Example 5] | VEGFR2 (purified cytoplasmic domain KDR protein) (Homo sapiens (Human)) | 8.30 |
| COc1cc(Nc2ncc3c(n2)CCN(C(=O)c2ccccn2)C3)cc(OC)c1OC [Example 15] | VEGFR2 (purified cytoplasmic domain KDR protein) (Homo sapiens (Human)) | 5.73 |

Notebook: COc1cccc(Nc2ncc3c(n2)CCN(C(=O)c2cccnc2)C3)c1 [Example 6] , pIC50 read as 6.35
